Provide the reported pIC50 of each item.
Test system: NIH:OVCAR-3 cells
Test: Cell viability of KIF18a-sensitive cell lines, NIH:OVCAR-3 (Cell Titre-Glo, 7 days)
Format: cell-based
Conditions: Homo sapiens, OVCAR-3, 168 h; NIH:OVCAR3, 7 days; read-out: NIH:OVCAR3 IC50
Give bare numbers, as −log10 of the molar value.

Record excerpt, results attached:
{"columns": ["compound", "pIC50"],
 "data": [
  ["CCS(=O)(=O)Nc1ccc(-n2cc(-c3cc(C)nc(N4CCC(F)(F)CC4)n3)nn2)c(N2CCC3(CC2)CC3)c1 [Compound 106]", 7.60],
  ["O=S(=O)(CCO)Nc1ccc(-n2cc(-c3ccn(C4CCC(F)(F)CC4)n3)nn2)c(N2CCC3(CCC3)CC2)c1 [Compound 130]", 7.72],
  ["Cc1cc(N2CCC(F)(F)CC2)nc(-n2cc(-c3ccc(NS(=O)(=O)CCO)cc3N3CCC4(CC3)CC4)nn2)c1 [Compound 95]", 7.29],
  ["Cc1cc(-c2cn(-c3ccc(NS(=O)(=O)CCO)cc3N3CCCCC3)nn2)nc(N2CCC(F)(F)CC2)n1 [Compound 67]", 7.33],
  ["Cc1cc(-c2cn(-c3ccc(NS(=O)(=O)CCO)cc3N3CCC4(CC3)CC4)nn2)nc(N2CCCCC2)n1 [Compound 101]", 7.57],
  ["CS(=O)(=O)Nc1ccc(-c2ncc(-c3cccc(N4CCC(F)(F)CC4)n3)[nH]2)c(N2CCC3(CC2)CC3)c1 [Compound 9]", 6.70]
]}

Below are some compounds; for each one, tell me its pIC50.
1. O=S(=O)(CCO)Nc1ccc(-n2cc(-c3cccc(N4CCC(F)(F)CC4)n3)nn2)c(N2CCC3(CC2)CC3)c1 [Compound 45]
2. CS(=O)(=O)Nc1ccc(-c2ncc(-c3cccc(N4CCOCC4)n3)[nH]2)c(N2CCC3(CC2)CC3)c1 [Compound 10]
3. CCS(=O)(=O)Nc1ccc(-n2cc(-c3cccc(S(=O)(=O)NC(C)(C)C)c3)nn2)c(N2CCC3(CC2)CC3)c1 [Compound 116]
4. Cc1cc(-n2cc(-c3ccc(NS(=O)(=O)CCO)cc3N3CCC4(CC3)CC4)nn2)nc(N2CCC(F)(F)CC2)n1 [Compound 87]
5. CCS(=O)(=O)Nc1ccc(-c2cn(-c3cccc(S(=O)(=O)NC(C)(C)C)c3)nn2)c(N2CCC3(CC2)CC3)c1 [Compound 110]

Found:
[8.26, 6.68, 8.41, 7.31, 8.36]

Below are some compounds; for each one, tell me its pIC50.
1. O=S(=O)(CCO)Nc1ccc(-c2cn(-c3cncc(N4CCC(F)(F)CC4)n3)nn2)c(N2CCC3(CC2)CC3)c1 [Compound 96]
2. CCS(=O)(=O)Nc1ccc(-n2cc(-c3cccc(N4CC(F)(F)C4)n3)nn2)c(N2CCC3(CC2)CC3)c1 [Compound 61]

Found:
7.55
7.80

Lookup: For NIH:OVCAR-3 cells, provide pIC50 of CS(=O)(=O)Nc1ccc(-c2cn(-c3cccc(N4CCC(F)(F)CC4)n3)nn2)c(N2CCC3(CC2)CC3)c1 [Compound 29] please.
Found: 7.68
